assay: Drug level in C57BL/6J mouse brain at 30 mg/kg, po after 0.5 hrs by LC/MS-MS analysis; assay type: ADME, organism-based; details: read-out: Drug uptake
attribute-measured: concentration at 0.5 h (ng/g)
Write down the numeric answer in ng/g and omit the unit.

concentration at 0.5 h measured on `CC1CCN(c2ccnc(NCc3cn(C)cn3)n2)CC1` = 2700

---

test: Drug level in C57BL/6J mouse plasma at 30 mg/kg, po after 1 hrs by LC/MS-MS analysis; format: ADME, organism-based
attribute-measured: concentration at 1 h (ng/mL)
// units = ng/mL; emit number, no label

For reference, reported concentration at 1 h for `CC1CCN(c2ccnc(NCc3cn(C)cn3)n2)CC1` stands at 1900

---

Molecular target: Protein O-GlcNAcase (Homo sapiens, UniProt O60502)
Sequence (O60502 whole entry): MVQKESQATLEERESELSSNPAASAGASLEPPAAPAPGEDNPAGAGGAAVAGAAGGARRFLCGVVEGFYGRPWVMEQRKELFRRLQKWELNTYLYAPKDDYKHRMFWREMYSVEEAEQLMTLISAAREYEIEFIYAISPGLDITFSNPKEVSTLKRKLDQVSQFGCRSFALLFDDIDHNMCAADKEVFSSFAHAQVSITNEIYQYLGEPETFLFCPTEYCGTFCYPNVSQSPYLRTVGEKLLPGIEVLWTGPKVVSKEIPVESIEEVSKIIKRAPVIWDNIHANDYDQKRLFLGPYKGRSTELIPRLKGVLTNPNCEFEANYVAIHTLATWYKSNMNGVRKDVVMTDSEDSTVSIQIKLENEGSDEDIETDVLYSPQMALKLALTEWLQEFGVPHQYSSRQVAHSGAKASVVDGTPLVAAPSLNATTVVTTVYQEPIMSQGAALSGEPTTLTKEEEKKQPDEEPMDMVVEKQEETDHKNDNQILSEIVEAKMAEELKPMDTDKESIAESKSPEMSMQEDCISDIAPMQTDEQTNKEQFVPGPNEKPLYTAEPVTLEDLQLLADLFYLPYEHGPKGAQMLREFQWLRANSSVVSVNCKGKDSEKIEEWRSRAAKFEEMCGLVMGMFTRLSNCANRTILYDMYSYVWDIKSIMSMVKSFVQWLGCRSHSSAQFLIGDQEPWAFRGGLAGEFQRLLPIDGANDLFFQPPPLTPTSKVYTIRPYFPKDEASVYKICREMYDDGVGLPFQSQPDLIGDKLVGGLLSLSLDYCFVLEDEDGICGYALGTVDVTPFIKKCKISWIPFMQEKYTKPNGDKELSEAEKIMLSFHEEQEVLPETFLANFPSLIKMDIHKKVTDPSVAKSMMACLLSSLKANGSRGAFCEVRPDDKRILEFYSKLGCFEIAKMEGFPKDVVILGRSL
Test: Inhibition of full-length human OGA expressed in Expi293 (HEK293) cells using 4-methylumbelliferyl-N-acetyl-beta-D-glucosaminide dihydrate as fluorogenic substrate preincubated with enzyme followed by substrate addition and measured every 5 mins for 60 mins by fluorescence based analysis
attribute-measured: IC50 (µM)
Express the result in µM but write the number alone.

Reported Protein O-GlcNAcase (Homo sapiens, UniProt O60502) IC50 for item `CC1CCN(c2ccnc(NCCc3ccccn3)n2)CC1` was 0.36

Reported IC50 (Protein O-GlcNAcase (Homo sapiens, UniProt O60502)) for entry `c1ccc(CCNc2nccc(N3CCOCC3)n2)cc1` is 4.7

Entry CC1CCN(c2ccnc(NC(C)CN3CCN(C)CC3)n2)CC1 (stereo not given) , tested on Protein O-GlcNAcase (Homo sapiens, UniProt O60502), has a reported IC50 of 0.041

The molecule `CC1CCN(c2ccnc(NCc3cn(C)cn3)n2)CC1` , tested on Protein O-GlcNAcase (Homo sapiens, UniProt O60502), showed IC50 of 0.046

I looked up `COC1CCN(c2ccnc(NCCc3ccccc3)n2)CC1` and its IC50 for Protein O-GlcNAcase (Homo sapiens, UniProt O60502) was 0.97

The molecule `CC1CCN(c2ccnc(NCCc3ccccc3)n2)CC1` on Protein O-GlcNAcase (Homo sapiens, UniProt O60502): IC50 was 0.024

Readout IC50 for `CC1CCN(c2ccnc(NCCc3cccnc3)n2)CC1` , test system Protein O-GlcNAcase (Homo sapiens, UniProt O60502), was 0.031

// molecule `CC1CCN(c2ccnc(NCc3cccnc3)n2)CC1` , assay Protein O-GlcNAcase (Homo sapiens, UniProt O60502), IC50 value: 0.018
